src = patent US12440496B2

The following compounds are shown together with reported log10 of EC50 values.
system under test: hNPRA (Homo sapiens, UniProt P16066)
experimental protocol: NPRA Functional Cell Assay (cGMP HTRF, NPRA HEK JumpIn stable cells)
assay setup: cGMP production, 1 hour at 37° C., 10-point dose response
Values reflect log10 of reported EC50 (nM).

CC(C)(C)[C@H]1CCc2nc3sc(C(=O)N[C@H](CCN4CCC(F)CC4)c4ccc(-c5ccc(=O)[nH]c5)cc4)cc3cc2C1 (racemic) :: 3.00
CC(C)(C)[C@H]1CCc2nc3sc(C(=O)N[C@H](CCN4CC5CC4CO5)c4ccc(-c5ccc(=O)[nH]c5)cc4)cc3cc2C1 (mixture of isomers) :: 2.88
CN(CCC(=O)O)CC[C@@H](NC(=O)c1nc2cc3c(nc2s1)CC[C@H](C(C)(C)C)C3)c1cccc(C(=O)NC2CN(C)C2)c1 (racemic) :: 2.81
CC(C)(C)[C@H]1CCc2nc3sc(C(=O)N[C@H](CCN4CCC(O)CC4)c4cccc(C(=O)NC5CNC(=O)C5)c4)nc3cc2C1 (mixture of isomers) :: 2.88
CC(C)(C)[C@H]1CCc2nc3sc(C(=O)N[C@H](CCN4CCCCC4)c4ccc(-c5cnc(O)c(F)c5)cc4)cc3cc2C1 :: 2.37

Let us move to another entry and its log10 of EC50.
Give the measured log10 of EC50 of CC(C)(C)[C@H]1CCc2nc3sc(C(=O)N[C@H](CCN4CCC(c5nn[nH]n5)C4)c4ccc(-c5ccc(=O)[nH]c5)cc4)cc3cc2C1 (mixture of isomers) .
2.96

###

system under test: hNPRA (Homo sapiens)
experimental protocol: NPRA Functional Cell Assay (cGMP HTRF, NPRA HEK JumpIn stable cells)
assay setup: cGMP production, 1 hour at 37° C., 10-point dose response
Structures can show the parent of a compound that is named as a salt.
endpoint: EC50 (nM)
The reply should be a number in nM, with the unit left off.

CCN(CC)CC[C@@H](NC(=O)c1nc2cc3c(nc2s1)CC[C@H](C(C)(C)C)C3)c1ccc(-c2cnc(O)c(F)c2)cc1 (racemic) [Example 202, formate] :: 514

// EC50 lookup, key: CC(C)(C)[C@H]1CCc2nc3sc(C(=O)N[C@H](CCN4CCC(O)CC4)c4ccc(-c5ccc(=O)[nH]c5)cc4)nc3cc2C1 (racemic) [Example 164, trifluoroacetate]
590

What value of EC50 has been reported for the following compound? CN(C)CC[C@@H](NC(=O)c1nc2cc3c(nc2s1)CC[C@H](C(C)(C)C)C3)c1cccc(C(=O)N2CCNCC2)c1 (racemic) [Example 97]
1380

Would you kindly share the measured EC50 for CC(C)(C)[C@H]1CCc2nc3sc(C(=O)N[C@H](CCN4CCC(O)CC4)c4ccc(N5CCOC5=O)nc4)nc3cc2C1 (racemic) [Example 186] ?
350

Reported EC50 for O=C1CN(c2ccc([C@@H](CCN3CCC(O)CC3)NC(=O)c3nc4cc5c(nc4s3)CC[C@H](C3(C(F)(F)F)CC3)C5)cn2)C(=O)N1 [Example 221] : what is it?
1140

For the compound shown here, CC(C)(C)[C@H]1CCc2nc3sc(C(=O)N[C@H](CCN4CCC(O)CC4)c4ccc(-c5cc(F)c(O)c(F)c5)cc4)nc3cc2C1 (racemic) [Example 184, trifluoroacetate] , give the reported EC50.
1700

###

system under test: hNPRA (Homo sapiens, UniProt P16066)
Sequence (P16066 33-1061): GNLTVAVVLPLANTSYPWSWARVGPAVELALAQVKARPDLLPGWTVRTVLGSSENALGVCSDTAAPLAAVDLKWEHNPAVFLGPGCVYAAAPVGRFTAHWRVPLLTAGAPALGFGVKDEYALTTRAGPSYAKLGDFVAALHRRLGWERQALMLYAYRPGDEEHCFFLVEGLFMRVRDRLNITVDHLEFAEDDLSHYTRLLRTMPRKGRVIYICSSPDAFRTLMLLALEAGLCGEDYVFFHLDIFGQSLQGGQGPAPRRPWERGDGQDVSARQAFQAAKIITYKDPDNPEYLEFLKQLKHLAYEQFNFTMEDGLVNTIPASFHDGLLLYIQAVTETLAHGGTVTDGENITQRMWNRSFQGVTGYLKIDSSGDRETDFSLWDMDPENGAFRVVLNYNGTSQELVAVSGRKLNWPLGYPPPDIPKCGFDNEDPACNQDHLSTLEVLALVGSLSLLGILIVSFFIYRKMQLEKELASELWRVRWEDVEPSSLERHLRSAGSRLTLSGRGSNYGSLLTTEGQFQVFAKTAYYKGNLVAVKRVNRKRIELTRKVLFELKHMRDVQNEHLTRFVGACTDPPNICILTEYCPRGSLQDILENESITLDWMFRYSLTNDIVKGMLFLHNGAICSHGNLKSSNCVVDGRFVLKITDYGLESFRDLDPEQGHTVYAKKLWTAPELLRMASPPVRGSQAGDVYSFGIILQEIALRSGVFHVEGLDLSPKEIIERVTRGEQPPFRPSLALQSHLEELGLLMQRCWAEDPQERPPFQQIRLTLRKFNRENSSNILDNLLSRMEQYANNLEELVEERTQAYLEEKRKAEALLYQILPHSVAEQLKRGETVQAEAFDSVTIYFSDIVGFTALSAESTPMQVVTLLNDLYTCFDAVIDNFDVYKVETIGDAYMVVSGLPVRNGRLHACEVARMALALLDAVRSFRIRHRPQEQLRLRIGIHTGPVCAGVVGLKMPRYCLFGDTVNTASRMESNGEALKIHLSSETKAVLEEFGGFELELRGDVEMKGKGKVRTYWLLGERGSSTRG
experimental protocol: NPRA Functional Cell Assay (cGMP HTRF, NPRA HEK JumpIn stable cells)
assay setup: cGMP production, 1 hour at 37° C., 10-point dose response
Where a name gives a salt, the structure may show the parent alone.
endpoint: EC50 (nM)
Just the number in nM, nothing appended.

Would you please look over these solved cases?
CC(C)(C)[C@H]1CCc2nc3sc(C(=O)N[C@H](CCN4CCC(O)CC4)c4ccc(-c5ccc(O)nn5)cc4)nc3cc2C1 (racemic) [Example 165, trifluoroacetate] :: 611
CC(C)(C)[C@H]1CCc2nc3sc(C(=O)N[C@H](CCN4CCC(O)CC4)c4ccc(OCC(N)=O)nc4)nc3cc2C1 (racemic) :: 787
CC(C)(C)[C@H]1CCc2nc3sc(C(=O)N[C@H](CCN4CCCC4)c4ccc(-c5ccc(=O)[nH]c5)cc4)cc3cc2C1 (racemic) :: 511
CC(C)(C)[C@H]1CCc2nc3sc(C(=O)N[C@H](CCN4C[C@@H](O)[C@H](O)C4)c4ccc(-c5ccc(=O)[nH]c5)cc4)cc3cc2C1 (racemic) :: 705
CC1(C)NCCC1NC(=O)c1cccc([C@@H](CCN2CCC(O)CC2)NC(=O)c2nc3cc4c(nc3s2)CC[C@H](C(C)(C)C)C4)c1 (mixture of isomers) :: 219

What does the data say about its EC50? Entry: `CC(C)(C)[C@H]1CCc2nc3sc(C(=O)N[C@H](CCN4CCC(O)CC4)c4ccc(-c5ccnnc5)nc4)nc3cc2C1`
129

Please report the recorded EC50 for CC(C)(C)C1CCc2nc3sc(C(=O)NC(CCN4CCC(O)CC4)c4ccc(N5CCC(O)C5=O)nc4)nc3cc2C1 (racemic) .
938

So what does the record say about EC50 for CC(C)(C)[C@H]1CCc2nc3sc(C(=O)N[C@H](CCN4CCC(O)CC4)c4ccc(-c5cnsc5)cc4)nc3cc2C1 (racemic) ?
1440

I would be grateful if you could share the reported EC50 for CC(C)(C)[C@H]1CCc2nc3sc(C(=O)N[C@H](CCN4CCCCC4)c4ccc(-c5cnc(=O)[nH]c5)cc4)cc3cc2C1 (racemic) .
518

What value of measured EC50 is listed for CC(C)(C)[C@H]1CCc2nc3sc(C(=O)N[C@H](CCN4CCC(O)CC4)c4cccc(C(=O)N5CC(N)C5)c4)nc3cc2C1 (racemic) ?
640

Any idea what EC50 was measured for CC(C)(C)[C@H]1CCc2nc3sc(C(=O)N[C@H](CCNC4CCOCC4)c4cccc(NS(C)(=O)=O)c4)cc3cc2C1 (racemic) ?
710

Please look up its EC50: CC1(O)CN(C(=O)c2cccc([C@@H](CCN3CCC(O)CC3)NC(=O)c3nc4cc5c(nc4s3)CC[C@H](C(C)(C)C)C5)c2)C1 (racemic)
553

###

Parameter: pEC50. Scope: all listed entries.
system under test: hNPRA (Homo sapiens, UniProt P16066)
Sequence (P16066 33-1061): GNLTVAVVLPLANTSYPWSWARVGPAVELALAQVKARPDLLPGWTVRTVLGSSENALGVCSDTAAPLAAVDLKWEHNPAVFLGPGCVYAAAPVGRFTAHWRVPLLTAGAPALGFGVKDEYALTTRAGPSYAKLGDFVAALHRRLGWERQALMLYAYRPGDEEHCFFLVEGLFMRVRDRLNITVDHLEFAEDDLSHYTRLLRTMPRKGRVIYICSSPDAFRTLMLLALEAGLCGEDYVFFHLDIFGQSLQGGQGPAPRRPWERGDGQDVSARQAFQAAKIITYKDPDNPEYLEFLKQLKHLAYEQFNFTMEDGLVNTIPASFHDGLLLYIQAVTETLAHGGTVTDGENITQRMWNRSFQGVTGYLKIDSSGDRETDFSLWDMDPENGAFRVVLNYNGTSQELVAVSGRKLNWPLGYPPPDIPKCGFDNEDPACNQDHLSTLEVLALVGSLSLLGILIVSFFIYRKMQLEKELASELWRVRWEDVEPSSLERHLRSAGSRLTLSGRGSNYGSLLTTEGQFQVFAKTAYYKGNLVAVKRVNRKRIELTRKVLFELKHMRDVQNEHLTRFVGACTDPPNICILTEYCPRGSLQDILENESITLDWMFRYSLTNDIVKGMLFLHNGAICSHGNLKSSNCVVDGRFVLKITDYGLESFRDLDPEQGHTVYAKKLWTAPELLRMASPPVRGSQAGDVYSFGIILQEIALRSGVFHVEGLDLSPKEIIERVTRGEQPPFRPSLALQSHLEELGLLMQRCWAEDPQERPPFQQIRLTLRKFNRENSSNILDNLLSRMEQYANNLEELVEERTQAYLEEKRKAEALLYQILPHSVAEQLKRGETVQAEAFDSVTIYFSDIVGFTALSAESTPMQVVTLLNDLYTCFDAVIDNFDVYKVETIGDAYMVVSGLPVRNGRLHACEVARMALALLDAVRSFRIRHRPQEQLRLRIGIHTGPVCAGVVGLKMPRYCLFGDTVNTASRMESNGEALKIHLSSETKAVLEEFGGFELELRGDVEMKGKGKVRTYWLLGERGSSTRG
experimental protocol: NPRA Functional Cell Assay (cGMP HTRF, NPRA HEK JumpIn stable cells)
assay setup: cGMP production, 1 hour at 37° C., 10-point dose response
Where a name gives a salt, the structure may show the parent alone.
FYI, pEC50 means -log10 of a concentration in mol per litre.

Here's what some known entries look like.
CC(C)[C@]1(F)CCc2nc3sc(C(=O)N[C@H](CCN4CCC(O)CC4)c4ccc(N5CCOCS5(=O)=O)nc4)nc3cc2C1 :: 7.15
Cc1nn(-c2ccc([C@@H](CCN3CCC(O)CC3)NC(=O)c3nc4cc5c(nc4s3)CC[C@H](C(C)(C)C)C5)cn2)c(C)c1O (racemic) :: 6.19
CC1([C@H]2CCc3nc4sc(C(=O)N[C@H](CCN5CCC(O)CC5)c5ccc(-c6ccnnc6)nc5)nc4cc3C2)CC1 :: 6.95

Please tell me: pEC50 of CN(C)CC[C@@H](NC(=O)c1nc2cc3c(nc2s1)CC[C@H](C(C)(C)C)C3)c1cccc(C(=O)NC2CCN(CC(F)(F)F)C2)c1 (mixture of isomers) , system hNPRA (Homo sapiens, UniProt P16066)?
5.70

Please provide the recorded pEC50 for CC(C)(C)[C@H]1CCc2nc3sc(C(=O)N[C@H](CCN[C@H]4COC[C@@H]4O)c4ccc(-c5ccc(=O)[nH]c5)cc4)cc3cc2C1 (racemic) , tested on hNPRA (Homo sapiens, UniProt P16066).
5.74

For hNPRA (Homo sapiens, UniProt P16066), provide pEC50 of CC(C)(C)[C@H]1CCc2nc3sc(C(=O)N[C@H](CCN4CC[C@@H](C(=O)O)[C@@H](F)C4)c4ccc(-c5cnc(O)c(F)c5)cc4)nc3cc2C1 (racemic) [Example 201, formate] please.
6.35

Query for hNPRA (Homo sapiens, UniProt P16066): what pEC50 does the record show for CC(C)(C)[C@H]1CCc2nc3sc(C(=O)N[C@H](CCN4CCC(O)CC4)c4ccc(-c5cn[nH]c5)cc4)nc3cc2C1 (racemic) [Example 80, formate] ?
6.12

// fetch hNPRA (Homo sapiens, UniProt P16066) pEC50 for `CN(C)S(=O)(=O)Nc1ccc([C@@H](CCN2CCC(O)CC2)NC(=O)c2nc3cc4c(nc3s2)CC[C@H](C(C)(C)C)C4)cc1F`
6.17
